# Experimental Target: monomeric N-terminal cynomolgus LTbR (ECD full length) hu IgG1 Fc-fusion kih HRYF avi biotinylated (P1AE2656) (cynomolgus, UniProt P0DOX5 223-449 = IgG part, biotinylated avi tag)
# Run Description: direct ELISA
// reported max. binding (OD) for each item listed

Binder | max. binding (OD)
P1AE9450 (antibody, human IgG1, kappa, L234A L235A, V domains shown, human IgG1 PG LALA; from transgenic rabbit immunization; also called LTBR (9450)) VH: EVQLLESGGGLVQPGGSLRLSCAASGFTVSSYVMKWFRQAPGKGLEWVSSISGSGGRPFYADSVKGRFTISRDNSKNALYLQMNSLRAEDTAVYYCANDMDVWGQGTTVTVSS VL: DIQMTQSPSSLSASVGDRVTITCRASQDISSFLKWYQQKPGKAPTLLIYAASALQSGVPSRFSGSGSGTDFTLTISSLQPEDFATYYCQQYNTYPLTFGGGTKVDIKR | 3.18 OD
P1AE9452 (antibody, human IgG1, kappa, L234A L235A, V domains shown, human IgG1 PG LALA; from transgenic rabbit immunization; also called LTBR (9452)) VH: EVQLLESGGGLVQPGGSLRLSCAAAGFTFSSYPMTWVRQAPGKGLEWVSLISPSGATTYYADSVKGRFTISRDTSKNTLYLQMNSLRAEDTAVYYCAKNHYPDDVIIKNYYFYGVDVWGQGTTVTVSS VL: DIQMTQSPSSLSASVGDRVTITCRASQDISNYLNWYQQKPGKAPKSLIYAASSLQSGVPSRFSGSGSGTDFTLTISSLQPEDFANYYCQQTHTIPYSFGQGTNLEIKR | 3.48 OD
P1AF0064 (antibody, human IgG1, kappa, L234A L235A, V domains shown, human IgG1 PG LALA constant regions; V domains from rat immunization; also called LTBR (0064)) VH: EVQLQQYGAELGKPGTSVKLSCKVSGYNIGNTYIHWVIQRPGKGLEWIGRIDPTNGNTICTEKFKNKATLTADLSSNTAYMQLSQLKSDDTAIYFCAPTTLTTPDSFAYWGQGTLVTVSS VL: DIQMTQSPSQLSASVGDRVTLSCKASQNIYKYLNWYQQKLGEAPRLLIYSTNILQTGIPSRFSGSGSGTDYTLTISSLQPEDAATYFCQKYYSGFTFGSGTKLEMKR | 3.4 OD

The measurements presented in this section are drawn from patent US20250034269A1.
